# Test: chemical genetic growth profiling, strain panel (AID 1159580);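 further: tested at 20 µM; growth read once vehicle control cultures reached saturation at 30 °C; 1 = growth at the plate median or of vehicle wells; lower values mean less growth of the strain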
# Protocol conditions: S. cerevisiae deletion strains, growth OD, locus YJL095W, strain BCK1 (second series), active compounds read low
Screen size: about 5,500 compounds; about 2,000 (36%) were called active. Not shown: some 18% with an inconclusive outcome. This is one part of the list.
normalized growth reference

1) CCOc1ccc(C(=O)c2cc(O)c(OC)c(OC)c2O)cc1
0.938 (inactive)
2) CNS(=O)(=O)c1ccc(NC(=O)c2ccccc2C(=O)O)cc1
0.99 (inactive)
3) CCOc1ccc(C(=O)c2ccc(O)c(O)c2O)cc1
0.908 (active)
4) COc1cc(NS(=O)(=O)c2ccc(N)cc2)ncn1
0.976 (inactive)
5) CCOc1ccc(NC(C)=O)cc1
1.01 (inactive)

Task: For the compound CC(=O)OC[C@H]1O[C@@H](Oc2cc(OC(C)=O)c3c(=O)cc(-c4ccc(OC(C)=O)cc4)oc3c2)[C@H](OC(C)=O)[C@@H](OC(C)=O)[C@@H]1OC(C)=O , what normalized growth is on record?
Output: 1.04 (inactive)

Task: Next compound: CC(=O)OCC(=O)[C@@]12OC3(CCCC3)O[C@@H]1CC1C3CCC4=CC(=O)C=C[C@]4(C)[C@@]3(F)[C@@H](O)C[C@@]12C (stereo not given in full)
Output: 1.02 (inactive)

Task: Next compound: CCOc1ccc(C(=O)c2ccc(OC)c(O)c2O)cc1
Output: 0.987 (inactive)

Task: Next compound: COc1ccc2c(c1)[C@]13CCCC[C@H]1[C@H](C2)N(C)CC3
Output: 0.978 (inactive)

Task: Next compound: COc1c2c(cc3c1OCO3)C13C=C[C@H](OC)CC1N(C2)CC3O (stereo not given in full)
Output: 0.972 (inactive)

###

normalized growth reference
# Test: chemical genetic growth profiling, strain panel (AID 1159580)
# Protocol conditions: S. cerevisiae deletion strains, growth OD, locus YER167W, strain BCK2, active compounds read low
About 2,000 (36%) of roughly 5,500 compounds were called active. Inconclusive results (about 18%) are left out. The list shows a part of the results.
Answer field: number only, no words.

Example entries and their recorded answers appear below.
1) COc1cc(NS(=O)(=O)c2ccc(N)cc2)ncn1
0.992
2) CCOc1ccc(C(=O)c2cc(O)c(OC)c(OC)c2O)cc1
1
3) CN1CCN(CC(=O)N2c3ccccc3C(=O)Nc3cccnc32)CC1
1.02
4) CCOc1ccc(C(=O)c2ccc(O)c(O)c2O)cc1
0.953

Task: For the molecule COc1ccc(C(=O)c2ccc(O)cc2)c(O)c1O , what normalized growth is on record?
Output: 1.02

Task: Next molecule: COc1cc2c(cc1O)CCNC2C (configuration not stated)
Output: 1.01

Task: Next molecule: COc1ccc(C(=O)c2ccccc2)c(O)c1O
Output: 0.997

###

# Test: chemical genetic growth profiling, strain panel (AID 1159580)
# Protocol conditions: S. cerevisiae deletion strains, growth OD, locus YPR141C, strain kar3, active compounds read low
Screen size: about 5,500 compounds; about 2,000 (36%) were called active. Not shown: some 18% with an inconclusive outcome. The list shows a part of the results.
Reported endpoint: normalized growth
Answer field: number only, no words.

Example entries and their recorded answers appear below.
1. CN1CCN(CCCN2c3ccccc3Sc3ccc(C(F)(F)F)cc32)CC1
0.98
2. OCCN1CCN(CCCN2c3ccccc3Sc3ccc(C(F)(F)F)cc32)CC1
0.985
3. COc1cc(-c2coc3cc(O[C@@H]4O[C@H](CO)[C@@H](O)[C@H](O)[C@H]4O)c(OC)c(O)c3c2=O)cc(O)c1OC
0.977
4. COc1cccc(OC)c1C(=O)N[C@@H]1C(=O)N2[C@@H]1SC(C)(C)[C@@H]2C(=O)O
0.972

Task: For the molecule Cc1onc(-c2ccccc2)c1C(=O)NC1C(=O)N2[C@@H]1SC(C)(C)[C@@H]2C(=O)O (stereo partly drawn) , what normalized growth is on record?
Output: 1.02

Task: Next molecule: CC(=O)NO
Output: 1

Task: Next molecule: COc1cc(O)cc(OC)c1OC
Output: 1.01

Task: Next molecule: CC1(C)S[C@@H]2[C@H](NC(=O)Cc3ccccc3)C(=O)N2[C@H]1C(=O)O
Output: 1.01

###

# Test: chemical genetic growth profiling, strain panel (AID 1159580);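 further: tested at 20 µM; growth read once vehicle control cultures reached saturation at 30 °C; 1 = growth at the plate median or of vehicle wells; lower values mean less growth of the strain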
# Protocol conditions: S. cerevisiae deletion strains, growth OD, locus YMR129W, active compounds read low
In all, about 5,500 compounds went through this assay and about 2,000 (36%) were called active. Another 18% or so got no clear call; they are omitted. This is one part of the list. Where a SMILES comes first, the peptide text is derived from it. Bridges are numbered along the chain shown (N, C = ends). [ ]: non-standard residue; d: D form. The star is where a group is joined. Octanoyl(6-Me) = CCC(C)CCCCC(=O)*; Dab = NCC[CH](N)C(=O)O
normalized growth reference
Answer field: number only, no words.

Example entries and their recorded answers appear below.
1) CCC(C)CCCCC(=O)NC(CCN)C(=O)NC(C(=O)NC(CCN)C(=O)NC1CCNC(=O)C(C(C)O)NC(=O)C(CCN)NC(=O)C(CCN)NC(=O)C(CC(C)C)NC(=O)C(Cc2ccccc2)NC(=O)C(CCN)NC1=O)C(C)O (stereo not drawn) ({Octanoyl(6-Me)}-[Dab]T[Dab][Dab][Dab]FL[Dab][Dab]T; lactam 4-C; configuration not given here)
1
2) NC(N)=NC(N)=Nc1ccccc1
0.996

# ---- query compound ----
Task: For the compound CC(=O)Oc1cccc2c1C(=O)c1c(OC(C)=O)cc(C(=O)O)cc1C2=O , what normalized growth is on record?
Output: 0.947

###

# Test: chemical genetic growth profiling, strain panel (AID 1159580);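 further: tested at 20 µM; growth read once vehicle control cultures reached saturation at 30 °C; 1 = growth at the plate median or of vehicle wells; lower values mean less growth of the strain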
# Protocol conditions: S. cerevisiae deletion strains, growth OD, locus YJR075W, strain HOC1, active compounds read low
Among all 5,500 compounds or so, about 2,000 (36%) were called active. Inconclusive results (about 18%) are left out. The list shows a part of the results. Where a SMILES comes first, the peptide text is derived from it. Bridges are numbered along the chain shown (N, C = ends). Side-chain parts run from the residue outwards. [ ]: non-standard residue; d: D form. The star is where a group is joined. Octanoyl(6-Me) = CCC(C)CCCCC(=O)*; X1 = CCC(C)C(N)C1=NC(C(=O)*)CS1; Orn = NCCC[CH](N)C(=O)O; Dab = NCC[CH](N)C(=O)O
Reported endpoint: normalized growth

Example entries and their recorded answers appear below.
1. CC(=O)Oc1cccc(C(=O)O)c1OC(C)=O
1.03 (inactive)
2. CCC(C)CCCCC(=O)NC(CCN)C(=O)NC(C(=O)NC(CCN)C(=O)NC1CCNC(=O)C(C(C)O)NC(=O)C(CCN)NC(=O)C(CCN)NC(=O)C(CC(C)C)NC(=O)C(Cc2ccccc2)NC(=O)C(CCN)NC1=O)C(C)O (stereo not given) ({Octanoyl(6-Me)}-[Dab]T[Dab][Dab][Dab]FL[Dab][Dab]T; lactam 4-C; configuration not given here)
0.997 (inactive)
3. CC(C)CC1NC(=O)C(CCCN)NC(=O)C(C(C)C)NC(=O)C2CCCN2C(=O)C(Cc2ccccc2)NC(=O)C(CC(C)C)NC(=O)C(CCCN)NC(=O)C(C(C)C)NC(=O)C2CCCN2C(=O)C(Cc2ccccc2)NC1=O (stereo not given) (cyclo(FPV[Orn]LFPV[Orn]L); configuration not given here)
1.01 (inactive)
4. CCC(C)C(N)C1=NC(C(=O)NC(CC(C)C)C(=O)NC(CCC(=O)O)C(=O)NC(C(=O)NCCCCC2NC(=O)C(CC(N)=O)NC(=O)C(CC(=O)O)NC(=O)C(Cc3cnc[nH]3)NC(=O)C(Cc3ccccc3)NC(=O)C(C(C)CC)NC(=O)C(CCCN)NC2=O)C(C)CC)CS1 (stereo not drawn) (cyclo(DNK([Ile-Glu-Leu-X1])[Orn]IFH); configuration not given here)
0.986 (inactive)

Task: For the compound Cc1c(NC(=O)c2cccnc2)c(=O)n(-c2ccccc2)n1C , what normalized growth is on record?
Output: 0.99 (inactive)

###

# Test: chemical genetic growth profiling, strain panel (AID 1159580);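 further: tested at 20 µM; growth read once vehicle control cultures reached saturation at 30 °C; 1 = growth at the plate median or of vehicle wells; lower values mean less growth of the strain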
# Protocol conditions: S. cerevisiae deletion strains, growth OD, locus YKL085W, strain MDH1
Hit rate of the full screen: of about 5,500 compounds, about 2,000 (36%) were called active. Not shown: some 18% with an inconclusive outcome. No stated cut-off is given here; in the data, active means normalized growth mostly below about 0.91 (no sharp cut-off); inconclusive means no clear call, values can overlap the other calls; inactive means mostly above about 0.92. Some of the results follow.
Choose one outcome from this list and give only that: active, inactive

Here are 2 compounds together with their reported answers.
1. C[C@]12CCC(=O)C=C1CCC1C2C(=O)C[C@@]2(C)C1CC[C@]2(O)C(=O)CO (some centres undefined)
inactive
2. NCC1OC(OC2C(CO)OC(OC3C(O)C(N)CC(N)C3OC3OC(CO)C(O)CC3N)C2O)C(N)C(O)C1OC1OC(CO)C(O)C(O)C1O (centres undefined)
inactive

Task: Hello, I am checking results. What call was entered for CN1CCN(CCC=C2c3ccccc3Sc3ccc(S(=O)(=O)N(C)C)cc32)CC1 ?
Output: inactive

Task: Next compound: CCCc1nc2c(C)cc(-c3nc4ccccc4n3C)cc2n1Cc1ccc(-c2ccccc2C(=O)O)cc1
Output: active

# credit: PubChem BioAssay AID1159580
